Assay: gradient 5% acetonitrile 3 min, to 50% in 2 min, to 85% in 15 min, held 3 min, 100 µL/min
Conditions: column: Zorbax Extend-C18 2.1 x 50 mm; eluents: water / acetonitrile, 0.1% formic acid
Listed compounds paired with reported RP-LC retention time
The response must be a number in s with no trailing unit.

| compound | observed result |
| --- | --- |
| CCNc1cc(N2CCCC(CCC(=O)NC3CCCC3)C2)ncn1 (centres undefined) | 646 |
| CC(C)CCNC(=O)N1C[C@@H]2CCCN3CCC[C@@H]([C@H]23)[C@H]1CCCC(=O)NCC1CC1 | 625 |
| COCc1noc(C2CN(C(=O)c3ocnc3C)CC23CCCC3)n1 (centres undefined) | 733 |

Okay, next one:
Query: Which RP-LC retention time is listed for CCc1noc(NC(C)=O)c1-c1ccc(C)c(S(=O)(=O)NCCc2ccccc2)c1 ?
Reply: 855

The reported numbers originate from the METLIN SMRT retention time set (Domingo-Almenara et al. 2019).
